measuredOn: PDLIM1, O00151
Sequence (O00151 1-87): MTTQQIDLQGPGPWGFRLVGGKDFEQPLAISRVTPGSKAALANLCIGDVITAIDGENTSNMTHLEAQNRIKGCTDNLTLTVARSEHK
experimentalDetails: holdup assay
Design: key: below the threshold = too weak to quantify, mostly under pKd 3.1 to 4
appliedConditions: plain residues with an end cap or a label only (N-terminal biotin on a linker: ttds)
recordedEndpoint: pKd

>  <binder>
STLTIFETAL [ABCC4, O15439]

>  <recordedEndpoint>
pKd

>  <assayResult>
3.85

$$$$
>  <binder>
TVASEKESVM [SLC1A5, Q15758]

>  <recordedEndpoint>
pKd

>  <assayResult>
below the threshold

$$$$
>  <binder>
IYVPEAQTRL [DLGAP4, Q9Y2H0]

>  <recordedEndpoint>
pKd

>  <assayResult>
below the threshold

$$$$
>  <binder>
GQDSREETQL [KCNT2, Q6UVM3]

>  <recordedEndpoint>
pKd

>  <assayResult>
below the threshold

$$$$
